TARGET_OR_SYSTEM: T1, glucose-dependent insulinotropic peptide (gastric inhibitory polypeptide) receptor (GIPR), primary cAMP assay … (human, UniProt P48546 22-466)
T1 sequence (looked up): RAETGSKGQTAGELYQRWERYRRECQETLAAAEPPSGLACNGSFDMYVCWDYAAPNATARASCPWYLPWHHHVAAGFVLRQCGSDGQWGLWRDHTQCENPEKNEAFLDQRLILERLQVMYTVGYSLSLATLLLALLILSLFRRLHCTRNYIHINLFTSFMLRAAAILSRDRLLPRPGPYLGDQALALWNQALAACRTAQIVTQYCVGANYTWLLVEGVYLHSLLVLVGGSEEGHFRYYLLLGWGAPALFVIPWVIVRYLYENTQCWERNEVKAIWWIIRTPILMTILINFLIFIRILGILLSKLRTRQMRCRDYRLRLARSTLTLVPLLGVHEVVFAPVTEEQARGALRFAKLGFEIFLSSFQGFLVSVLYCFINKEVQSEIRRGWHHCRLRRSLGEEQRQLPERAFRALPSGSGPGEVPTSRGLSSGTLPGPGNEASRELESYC
PROTOCOL_SUMMARY: cell-based or functional assay
Starred links: 1 amine or outer side, 2 acyl side, 3 side chain; linkers in the order of their positions; H or OH if unused. Non-standard residues stand in square brackets, D forms with d. Groups on a side chain read outwards from the residue. Primed or numbered codes have the meaning given here. No end group written: not given here. *: point of attachment. γGlu = O=C(O)[C@H](CCC(=O)[*:2])N[*:1]; αMeF = C[C@](N)(Cc1ccccc1)C(=O)O; αMeK = C[C@](N)(CCCCN)C(=O)O; Lauroyl = CCCCCCCCCCCC(=O)*; αMeS = C[C@](N)(CO)C(=O)O; PEG2′ = not defined here; Aib = CC(C)(N)C(=O)O
This listing pairs binders with measured cAMP Primary assay EC50, n2.
MEASUREMENT_KIND: cAMP Primary assay EC50, n2

{"BINDER": "H[Aib]EGS[αMeF]TSDVSK([PEG2′-PEG2′-γGlu-Lauroyl])YLEGEAA[αMeK]K([PEG2′-PEG2′-γGlu-Lauroyl])FIK([PEG2′-PEG2′-γGlu-Lauroyl])FVVEGG-NH2 [SEQ ID NO: 446]", "EXPERIMENTAL_RESULT": "19.7 nM"}
{"BINDER": "H[Aib]EGS[αMeF]TSDK([PEG2′-PEG2′-γGlu-Lauroyl])SSYLEK([PEG2′-PEG2′-γGlu-Lauroyl])EAA[αMeK]EFIK([PEG2′-PEG2′-γGlu-Lauroyl])FVVEGG-NH2 [SEQ ID NO: 439]", "EXPERIMENTAL_RESULT": "19.5 nM"}
{"BINDER": "H[Aib]EGS[αMeF]TSDK([PEG2′-PEG2′-γGlu-Lauroyl])SSYLEGK([PEG2′-PEG2′-γGlu-Lauroyl])AA[αMeK]EFIAFK([PEG2′-PEG2′-γGlu-Lauroyl])VEGG-NH2 [SEQ ID NO: 472]", "EXPERIMENTAL_RESULT": "19.9 nM"}
{"BINDER": "H[Aib]EGS[αMeF]TSDV[αMeS]SK([PEG2′-PEG2′-γGlu-Lauroyl])LEK([PEG2′-PEG2′-γGlu-Lauroyl])EAA[αMeK]EFIK([PEG2′-PEG2′-γGlu-Lauroyl])FVVEGG-NH2 [SEQ ID NO: 447]", "EXPERIMENTAL_RESULT": "19.7 nM"}
